# Test system: Wolbachia pipientis
# assay text: Anti-Wolbachia Cell-Based Screen
# Format: functional
# Design: scale not given: in the data most compounds retested in dose-response had high values
# experimental parameters: 5 µM
Out of some 48,000 compounds screened, about 13,000 (27%) showed an effect of 50% or more. Some of the results follow.
Would you mind telling me the reported Percent Effect of each entry?
Give bare numbers, in %.

# compound, observed measurement
rows = [
    ("O=C(NCc1csc(-c2cccs2)n1)C1NCCc2[nH]cnc21 (centres undefined)", -2.948),
]

Working through the 7 compounds below one at a time, give Percent Effect for each.
1. COC(=O)CNC(=O)CCCn1cnc2ccccc2c1=O
2. Cn1nc(C2CCCN2)c2c(C(=O)NC3CC3)cc(C3CC3)nc21 (centres undefined)
3. CC(C)(C)C(=O)N1CCCC1c1nc(O)cc(-c2ccccn2)n1 (centres undefined)
4. COc1ccc(C(C)N(C)Cc2c(C(C)C)[nH]c3ncccc23)cc1 (centres undefined)
5. CCC(Nc1ncccn1)c1ccc(OC)cc1 (centres undefined)
6. Fc1cnc(N2CCn3c(CN4CCCC4)nnc3C2)nc1.O=C(O)C(F)(F)F
7. CC(C)[C@H](C)NC1CCN(c2ccc(-c3cscn3)cc2)CC1

Response:
1. 126.5
2. 135.7
3. -2.189
4. 47.71
5. 2.346
6. -4.314
7. -7.145

Required: Percent Effect, one value per compound below.
1. Cn1c(CS(=O)(=O)Cc2ccc(Cl)cc2)cc(=O)n(C)c1=O
2. COc1ccc2cc(CN(C)C(C)c3nc(C4CC4)no3)ccc2c1 (centres undefined)
3. Cc1cccc(NCC(=O)NC2(C#N)CCCC2)c1C(=O)N1CCCC1
4. Cc1cccc(C(=O)N2CCCC2)c1NCC(=O)NC1(C#N)CCCC1
5. CCS(=O)(=O)N1CCc2nnc(CN(C)C(C)C)n2CC1
6. COc1ccc(C(C)N(C)Cc2c(C(C)(C)C)[nH]c3ncccc23)cc1 (centres undefined)
7. c1ccn(Cc2nnc3n2CCCN(c2cnccn2)C3)c1

Response:
[5.826, 6.729, -22.31, -7.992, -16.92, 103.1, 100.7]

Record Percent Effect per entry; entries follow.
1. CC(C)(C)c1ncc2c(n1)CN(C(=O)c1ccc(C#N)nc1)C2
2. COCc1nc(CNC2CCSC2)no1 (centres undefined)
3. COCC(C)NC(=O)CCSc1ccc(F)cc1 (centres undefined)

Response:
1. -2.492
2. -14.23
3. 4.419

The following compounds each have a reported value; give each one's Percent Effect.
1. CCC(C)NC(=O)CCc1ccnc2ccccc12 (centres undefined)
2. Fc1cnc(N2CCCn3c(nnc3Cn3cccc3)C2)nc1.O=C(O)C(F)(F)F
3. C[C@@H]1CN(S(=O)(=O)N2CCCC2)C[C@@]1(O)C1CC1
4. OCc1nnc2n1CCN(c1cnccn1)C2

Response:
0.4358
0.8563
-6.629
108

I need Percent Effect for every entry listed below, if you could help.
1. Cc1ccc(CN(C(=O)C(C)NC(N)=O)C2CC2)cc1C (centres undefined)
2. Cn1nc(C2CCNCC2)c2c(C(=O)NC3CC3)cc(C3CC3)nc21

Response:
[10.7, 128.7]
